src = patent US20030109568A1

SYSTEM_UNDER_TEST: cyclooxygenase-1 (Mus musculus, UniProt P22437)
Construct: endogenous in cells; host or cells: primary mouse peritoneal macrophages (unstimulated)
Sequence (P22437 27-602): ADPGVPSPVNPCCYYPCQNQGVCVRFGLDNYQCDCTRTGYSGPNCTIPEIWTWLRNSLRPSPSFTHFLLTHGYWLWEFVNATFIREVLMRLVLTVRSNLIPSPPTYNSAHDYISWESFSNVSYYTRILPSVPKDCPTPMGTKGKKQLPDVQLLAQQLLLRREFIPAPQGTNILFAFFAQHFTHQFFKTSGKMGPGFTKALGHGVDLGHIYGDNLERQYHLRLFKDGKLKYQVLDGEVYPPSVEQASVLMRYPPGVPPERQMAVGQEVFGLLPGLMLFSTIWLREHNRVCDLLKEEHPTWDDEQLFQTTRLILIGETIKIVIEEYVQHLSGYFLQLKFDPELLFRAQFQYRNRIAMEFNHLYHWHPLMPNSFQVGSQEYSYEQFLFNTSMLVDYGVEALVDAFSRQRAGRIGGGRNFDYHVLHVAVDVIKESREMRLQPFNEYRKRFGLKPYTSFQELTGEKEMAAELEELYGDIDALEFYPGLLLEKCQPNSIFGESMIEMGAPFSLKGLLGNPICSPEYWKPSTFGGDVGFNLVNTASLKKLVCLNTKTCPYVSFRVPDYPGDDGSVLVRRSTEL
METHOD_SUMMARY: Cyclooxygenase-1 inhibition in mouse peritoneal macrophages (PGE2 ELISA)
Format: cell-based
CONDITION_SUMMARY: 30 μM; mouse peritoneal macrophages
# label = true if Inhibitory effects of cyclooxygenase (COX), COX-1 >= 50 % inhibition else false

Exam item: Is Inhibitory effects of cyclooxygenase (COX), COX-1 at least 50 % inhibition? Consider Nc1ccc2c(ccn2C(=O)c2ccccc2)c1
Marked response: true

Exam item: Is Inhibitory effects of cyclooxygenase (COX), COX-1 at least 50 % inhibition? Consider CS(=O)(=O)Nc1ccc2c(ccn2Cc2ccc(F)cc2)c1
Marked response: true

Exam item: Is Inhibitory effects of cyclooxygenase (COX), COX-1 at least 50 % inhibition? Consider CS(=O)(=O)Nc1ccc2c(ccn2C(=O)c2ccccc2)c1
Marked response: false

Exam item: Is Inhibitory effects of cyclooxygenase (COX), COX-1 at least 50 % inhibition? Consider O=[N+]([O-])c1ccc2c(ccn2Cc2ccccc2)c1
Marked response: true

Exam item: Is Inhibitory effects of cyclooxygenase (COX), COX-1 at least 50 % inhibition? Consider COc1ccc(Cn2ccc3cc([N+](=O)[O-])ccc32)cc1
Marked response: true

Exam item: Is Inhibitory effects of cyclooxygenase (COX), COX-1 at least 50 % inhibition? Consider O=C(c1ccccc1)n1ccc2cc([N+](=O)[O-])ccc21
Marked response: false

Exam item: Is Inhibitory effects of cyclooxygenase (COX), COX-1 at least 50 % inhibition? Consider CS(=O)(=O)Nc1ccc2c(ccn2Cc2ccccc2)c1
Marked response: true

Exam item: Is Inhibitory effects of cyclooxygenase (COX), COX-1 at least 50 % inhibition? Consider CC(C)c1ccc(Cn2ccc3cc([N+](=O)[O-])ccc32)cc1
Marked response: true

Exam item: Is Inhibitory effects of cyclooxygenase (COX), COX-1 at least 50 % inhibition? Consider O=[N+]([O-])c1ccc2c(ccn2Cc2ccc(F)cc2)c1
Marked response: true
